Data provenance is the nanobody polyreactivity screen of Harvey et al. (2022).

experiment: yeast display, Sf9 membrane polyspecificity reagent, FACS + sequencing; frameworks hold sequencing errors
readout.kind: polyreactivity (PSR sort gate)

Examples with their reported polyreactivity (PSR sort gate) follow.
[
  {
    "sequence.record": "QVQLVESGGGLVQAGGSLRLSCAASGFIFDYYAMGWYRQAPVKERELVAAISWSGGSTYYADSVKGRFTISRDNAKNTVYLQMNSLKPEDTAVYYCNSYYQGYWGDFDYWGQGTQVTVSS",
    "polyreactivity (PSR sort gate)": "high polyreactivity"
  },
  {
    "sequence.record": "QVQLVESGGGLVQAGGSLRLSCAASGSTFAAYVMGWYRQAPGKERELVAAITKSGSSTYYADSVKGRFTISRDNAKNTVYLQMNSLKPEDTAVEYCAAYPVRVLYDYWGQGTQVTVSS",
    "polyreactivity (PSR sort gate)": "high polyreactivity"
  },
  {
    "sequence.record": "QVQLVESGGGLVQAGGSLRLSCAASGFTIISYTMGWYRQAPGKDRELVAAIRGGGRTYYADSVKGRFTISRDNAKNTVYLQMNSLKPEDTAVYYCAARLRYGGHYDYWGQGTQVTVSS",
    "polyreactivity (PSR sort gate)": "high polyreactivity"
  },
  {
    "sequence.record": "QVQLVESGGGLVQAGGSLRLTCAASGRIFGAYTMGWYRQEPGKERELVAAISWSGGRTYYADSVKGRFTISRDNAKNTFYLQLNSLNAEDTAVYYCNVRRQSGRYRVYEYDYWGQGTQVTVSS",
    "polyreactivity (PSR sort gate)": "low polyreactivity"
  },
  {
    "sequence.record": "QVQLVESGGGIVEAGVSLRLRGAASGGSFKSKAMVWYRQAPGNEREFVAAISSSGGSTYYADSVKGRFTISRDNAKNTVYLLMNILKPEDTAVYYCAADDYGYPYLSYDYWGQGTQVTVSS",
    "polyreactivity (PSR sort gate)": "high polyreactivity"
  }
]

For the 7 sequences below, give their polyreactivity (PSR sort gate) values.
1. QVQHEESGGGLVQAGGSLRLSCAASGRIFGTDAMGWFRQAPGKDRELVAAIRSSGDSTYYADSVKGRFTISRDNAKNTVYLQMNSLKPEDTAVYYCARTLRYYRPVLLVYRFGYWGQGTQVTVSS
2. QVQLVESGGGLVQAGGSLRLSCAASGRTFPRNGMGWYRQAPGKERELVAAISWSGGRTYYADSVKGRFTISRDNAKYTVYLQMNSLKPEDTAVYYCNALYFRKGGYWGHGTQVTVSS
3. QVHLVESGGGLVQAGGSLRLICAASGSTFWSYAMGWYRQAPGKERELVAAITSGGRTYYADSVKGRFTISRDNAKNTVYLQMNRLKPEYTAVYNCNAVVRHTYRRFDYWGQGTQVTVSS
4. QVQLVESGGGLVQAGGSLRLSCAASGNIFATYAMGWYRHAPGKEREFVAAITSRGGGTFYADSVKGRFTISRDNAKNTVYLQMNSLKPEDTAVYYCAARRSGHWLYGYWGQGTQVTVSS
5. QVQLVESGGGLVQAGGSLRLSCAASGSTFRYYTMGWYRQAPGKERELVAAITRRSASTYYADSVKGRFTISRDNAKNTVYLQMNSLKPEDTAVYYCAVRTNGPFEYWGQGTQVTVSS
6. QVQLVESGGGLVQAGGSLRLSCAASGRNFYVYAMGWYRQAPGKEREFVASITVSGSSTYYADSVKGRFTISRDNAKNTVYLQMNSLKPEDTAVYYCNTDAVRSYVWWGTSLYDYWGQGTLVTVSS
7. QVQLVESGGGLVQAGGSLRLSCAASGFIFGLYAMGWYRQAPGKERELVAAISGSGGSTYYADSVKGRFTISRDNAKNTVYLQMNSLKPEDTAVYYCNRAQGVHTYVYRYGYWGQGTQVTVSS

1. high polyreactivity
2. high polyreactivity
3. high polyreactivity
4. high polyreactivity
5. high polyreactivity
6. low polyreactivity
7. low polyreactivity
